Ref: patent US20140348747A1

Biological target: T1, NLpoly 11S (12-A51T)
T1 construct: E. coli clarified lysate; also called 12S-51
T1 chain: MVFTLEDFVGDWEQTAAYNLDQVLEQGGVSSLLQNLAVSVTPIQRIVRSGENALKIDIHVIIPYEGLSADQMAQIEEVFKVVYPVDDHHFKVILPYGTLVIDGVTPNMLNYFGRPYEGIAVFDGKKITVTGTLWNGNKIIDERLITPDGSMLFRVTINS
Test: luminescence complementation titration of synthetic NLpep on NLpoly E. coli lysate; one site-specific binding fit
pKd: −log10 of the molar value.
reportedMetric: pKd

binder	pKd
Ac-VSGWRLFKKIS-NH2 (synthetic peptide) [NLpep86]	> 9.00

Proceed to the following item.
For record Ac-VSGWRLFKKISN-NH2 (synthetic peptide) [NLpep80] the listed pKd is > 9.00
